Test system: 186277-243-T-J2-PDC spheroids with HUVEC/MSC, viability
Test: Anticancer human tumor 186277-243-T-J2-PDC patient-derived colon adenocarcinoma cell line growth inhibition [CLK]
Conditions: second compound 0.1 µM; first compound 0.0316 µM; hits give low values
Text: A high-throughput screen of multi-cell type tumor spheroids was designed to identify active combinations of […] and targeted small molecules. Complex spheroids include a stromal component modeled by human endothelial cells (HUVEC) and fibroblasts modeled by human mesenchymal stem cells (MSCs). […] Compounds. […] If the clinical Cmax for an agent had not been determined, the highest concentration tested was 10 microM. […]
Parameter viability, T/C: see the listing below.
// return numeric value only (unit: %, not printed)

The examples below pair each entry with its known result.
[
  {
    "COMPOUND": "Cn1ncnc1[C@H]1c2n[nH]c(=O)c3cc(F)cc(c23)N[C@@H]1c1ccc(F)cc1 + CNC(=O)c1ccc(Nc2nc(OC3CCCC3)c3c(-c4ccc5nc(C)oc5c4)c[nH]c3n2)c(OC)c1",
    "TESTED_ON": "186277-243-T-J2-PDC spheroids with HUVEC/MSC, viability",
    "viability, T/C [%]": 69.9
  },
  {
    "COMPOUND": "Cn1ncnc1[C@H]1c2n[nH]c(=O)c3cc(F)cc(c23)N[C@@H]1c1ccc(F)cc1 + CN1CCN(c2cc(C(=O)Nc3cc4cc(-c5cnn(C)c5)ccc4cn3)ccn2)CC1",
    "TESTED_ON": "186277-243-T-J2-PDC spheroids with HUVEC/MSC, viability",
    "viability, T/C [%]": 69.8
  }
]

Problem: What measured viability, T/C goes with CC(=O)O[C@H]1C(=O)[C@@]2(C)[C@H]([C@H](OC(=O)c3ccccc3)[C@]3(O)C[C@H](OC(=O)[C@H](O)[C@@H](NC(=O)c4ccccc4)c4ccccc4)C(C)=C1C3(C)C)[C@]1(OC(C)=O)CO[C@@H]1C[C@@H]2O + CN1CCN(c2cc(C(=O)Nc3cc4cc(-c5cnn(C)c5)ccc4cn3)ccn2)CC1 ?
Result: 14.4

Problem: What measured viability, T/C goes with CC(CO)NC(=O)c1cc(-c2ccc(Cl)cc2)nn(-c2cnn(C)c2)c1=O (stereo unspecified) + CNC(=O)c1ccc(Nc2nc(OC3CCCC3)c3c(-c4ccc5nc(C)oc5c4)c[nH]c3n2)c(OC)c1 ?
Result: 75.8

Problem: What measured viability, T/C goes with COc1ccc([C@@H](O)c2cc(-c3ncnc4cc(N5CCOCC5)ccc34)c(F)cc2Cl)nn1 + CNC(=O)c1ccc(Nc2nc(OC3CCCC3)c3c(-c4ccc5nc(C)oc5c4)c[nH]c3n2)c(OC)c1 ?
Result: 71.8

Problem: What measured viability, T/C goes with CC1(C)CCC(CN2CCN(c3ccc(C(=O)NS(=O)(=O)c4ccc(NCC5CCOCC5)c([N+](=O)[O-])c4)c(Oc4cnc5[nH]ccc5c4)c3)CC2)=C(c2ccc(Cl)cc2)C1 + CNC(=O)c1ccc(Nc2nc(OC3CCCC3)c3c(-c4ccc5nc(C)oc5c4)c[nH]c3n2)c(OC)c1 ?
Result: 81.6

---

Parameter viability, T/C: see the listing below.
Test system: 186277-243-T-J2-PDC spheroids with HUVEC/MSC, viability
Assay: Anticancer human tumor 186277-243-T-J2-PDC cell line growth inhibition [CLK];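 note: compound exposure lasted seven days before readout; 100% = DMSO vehicle control wells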
Settings: second compound 10 µM; first compound 3.16 µM; hits give low values
// return numeric value only (unit: %, not printed)

[
  {
    "MOLECULE": "Nc1ccn(C2OC(CO)C(O)C2(F)F)c(=O)n1 (stereo not drawn) + CN1CCN(c2cc(C(=O)Nc3cc4cc(-c5cnn(C)c5)ccc4cn3)ccn2)CC1",
    "viability, T/C (%)": 0.95
  }
]

Problem: What measured viability, T/C goes with Nc1ccn(C2OC(CO)C(O)C2(F)F)c(=O)n1 (stereo not drawn) + CNC(=O)c1ccc(Nc2nc(OC3CCCC3)c3c(-c4ccc5nc(C)oc5c4)c[nH]c3n2)c(OC)c1 ?
Result: 6.77

Problem: What measured viability, T/C goes with CC(Nc1ccc2c(c1)OCCn1cc(N3C(=O)OCC3C(F)F)nc1-2)C(N)=O (stereo not drawn) + CNC(=O)c1ccc(Nc2nc(OC3CCCC3)c3c(-c4ccc5nc(C)oc5c4)c[nH]c3n2)c(OC)c1 ?
Result: 6.97

---

Test system: 186277-243-T-J2-PDC spheroids with HUVEC/MSC, viability
Assay: Anticancer human tumor 186277-243-T-J2-PDC cell line growth inhibition [CLK];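 note: compound exposure lasted seven days before readout; 100% = DMSO vehicle control wells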
Conditions: second compound 0.1 µM; first compound 0.316 µM; hits give low values
Description: A high-throughput screen of multi-cell type tumor spheroids was designed to identify active combinations of […] and targeted small molecules. Complex spheroids include a stromal component modeled by human endothelial cells (HUVEC) and fibroblasts modeled by human mesenchymal stem cells (MSCs). […] Compounds. […] If the clinical Cmax for an agent had not been determined, the highest concentration tested was 10 microM. […]
RECORDED_ENDPOINT: viability, T/C (%)
// return numeric value only (unit: %, not printed)

The examples below pair each entry with its known result.
[
  {
    "COMPOUND": "O=c1[nH]cc(F)c(=O)[nH]1 + CNC(=O)c1ccc(Nc2nc(OC3CCCC3)c3c(-c4ccc5nc(C)oc5c4)c[nH]c3n2)c(OC)c1",
    "viability, T/C (%)": 64.2
  },
  {
    "COMPOUND": "C=CC(=O)N1CCN(c2nc(=O)n(-c3c(C)ccnc3C(C)C)c3nc(-c4c(O)cccc4F)c(F)cc23)C(C)C1 (centres undefined) + CNC(=O)c1ccc(Nc2nc(OC3CCCC3)c3c(-c4ccc5nc(C)oc5c4)c[nH]c3n2)c(OC)c1",
    "viability, T/C (%)": 77.7
  }
]

Problem: What measured viability, T/C goes with O=C(c1cc(Cc2n[nH]c(=O)c3ccccc23)ccc1F)N1CCN(C(=O)C2CC2)CC1 + CNC(=O)c1ccc(Nc2nc(OC3CCCC3)c3c(-c4ccc5nc(C)oc5c4)c[nH]c3n2)c(OC)c1 ?
Result: 88.3

Problem: What measured viability, T/C goes with O=C(c1cc(Cc2n[nH]c(=O)c3ccccc23)ccc1F)N1CCN(C(=O)C2CC2)CC1 + CN1CCN(c2cc(C(=O)Nc3cc4cc(-c5cnn(C)c5)ccc4cn3)ccn2)CC1 ?
Result: 82.7
